# protocol-summary: Plasma pharmacokinetics after multiple ascending doses (MAD), phase 1
# Format: in vivo, human (healthy adult participants)
# details: human, plasma, iv, 150 mg, First q6h dose (day 3), 7-day MAD 150 mg q6h × 7, n = 5, arithmetic mean ± SD; read-out: AUC0-6h
Where a SMILES comes first, the peptide text is derived from it. Bridges are numbered along the chain shown (N, C = ends). [ ]: non-standard residue; d: D form. The star is where a group is joined. X1 = O=C(c1ccc(Cl)cc1Cl)*; Dab = NCC[C@H](N)C(=O)O; Abu = CC[C@H](N)C(=O)O; Dap = NC[C@H](N)C(=O)O
experimental-endpoint: AUC(0-t) (ng·h/mL)

compound | value-reported
CC[C@@H]1NC(=O)[C@@H](CC(C)C)NC(=O)[C@H](CCN)NC(=O)[C@@H](NC(=O)[C@H](CN)NC(=O)[C@@H](NC(=O)[C@H](CCN)NC(=O)c2ccc(Cl)cc2Cl)[C@@H](C)O)CCNC(=O)[C@H]([C@@H](C)O)NC(=O)[C@H](CCN)NC(=O)[C@H](CCN)NC1=O [BRII-693] (X1-[Dab]T[Dap][Dab][Dab][dL][Abu][Dab][Dab]T; lactam 4-C; N-terminus assumed) | 24800

###

# protocol-summary: Plasma pharmacokinetics after single ascending doses (SAD), phase 1
# Format: in vivo, human (healthy adult participants)
# details: human, single 1-h IV infusion 400 mg, plasma, n = 6, arithmetic mean ± SD, read-out: AUC0–6h
Where a SMILES comes first, the peptide text is derived from it. Bridges are numbered along the chain shown (N, C = ends). [ ]: non-standard residue; d: D form. The star is where a group is joined. X1 = O=C(c1ccc(Cl)cc1Cl)*; Dab = NCC[C@H](N)C(=O)O; Abu = CC[C@H](N)C(=O)O; Dap = NC[C@H](N)C(=O)O

compound | AUC(0-t) [ng·h/mL]
CC[C@@H]1NC(=O)[C@@H](CC(C)C)NC(=O)[C@H](CCN)NC(=O)[C@@H](NC(=O)[C@H](CN)NC(=O)[C@@H](NC(=O)[C@H](CCN)NC(=O)c2ccc(Cl)cc2Cl)[C@@H](C)O)CCNC(=O)[C@H]([C@@H](C)O)NC(=O)[C@H](CCN)NC(=O)[C@H](CCN)NC1=O [BRII-693] (X1-[Dab]T[Dap][Dab][Dab][dL][Abu][Dab][Dab]T; lactam 4-C; N-terminus assumed) | 71400

###

# protocol-summary: Plasma pharmacokinetics after multiple ascending doses (MAD), phase 1
# Format: in vivo, human (healthy adult participants)
# details: human, plasma, iv, 150 mg, Last q6h dose (day 14), 14-day MAD 150 mg q6h × 14, non-Chinese, n = 10, arithmetic mean ± SD
# Description: Participants were discharged on day 11. Plasma and urine PK parameters were summarized for each cohort using descriptive statistics. Analyses using linear models were performed to assess dose proportionality (both single-dose cohorts 1–7 and multiple-dose cohorts 8–10). Dose-linearity of Cmax and AUC across the dose range was assessed by fitting the power model with ln-transformed parameter as response variables and ln-transformed dose (continuous variable) as a fixed effect. […]
Where a SMILES comes first, the peptide text is derived from it. Bridges are numbered along the chain shown (N, C = ends). [ ]: non-standard residue; d: D form. The star is where a group is joined. X1 = O=C(c1ccc(Cl)cc1Cl)*; Dab = NCC[C@H](N)C(=O)O; Abu = CC[C@H](N)C(=O)O; Dap = NC[C@H](N)C(=O)O

compound | clearance / mL/min
CC[C@@H]1NC(=O)[C@@H](CC(C)C)NC(=O)[C@H](CCN)NC(=O)[C@@H](NC(=O)[C@H](CN)NC(=O)[C@@H](NC(=O)[C@H](CCN)NC(=O)c2ccc(Cl)cc2Cl)[C@@H](C)O)CCNC(=O)[C@H]([C@@H](C)O)NC(=O)[C@H](CCN)NC(=O)[C@H](CCN)NC1=O [BRII-693] (X1-[Dab]T[Dap][Dab][Dab][dL][Abu][Dab][Dab]T; lactam 4-C; N-terminus assumed) | 64.7

###

# protocol-summary: Plasma pharmacokinetics after multiple ascending doses (MAD), phase 1
# Type: in vivo, human (healthy adult participants)
# details: human, plasma, iv, 150 mg, Last q6h dose (day 9), 7-day MAD 150 mg q6h × 7, n = 5, median (range); read-out: Tmax
# Protocol: Participants were discharged on day 11. Plasma and urine PK parameters were summarized for each cohort using descriptive statistics. Analyses using linear models were performed to assess dose proportionality (both single-dose cohorts 1–7 and multiple-dose cohorts 8–10). Dose-linearity of Cmax and AUC across the dose range was assessed by fitting the power model with ln-transformed parameter as response variables and ln-transformed dose (continuous variable) as a fixed effect. […]
Where a SMILES comes first, the peptide text is derived from it. Bridges are numbered along the chain shown (N, C = ends). [ ]: non-standard residue; d: D form. The star is where a group is joined. X1 = O=C(c1ccc(Cl)cc1Cl)*; Dab = NCC[C@H](N)C(=O)O; Abu = CC[C@H](N)C(=O)O; Dap = NC[C@H](N)C(=O)O

compound | Tmax, h
CC[C@@H]1NC(=O)[C@@H](CC(C)C)NC(=O)[C@H](CCN)NC(=O)[C@@H](NC(=O)[C@H](CN)NC(=O)[C@@H](NC(=O)[C@H](CCN)NC(=O)c2ccc(Cl)cc2Cl)[C@@H](C)O)CCNC(=O)[C@H]([C@@H](C)O)NC(=O)[C@H](CCN)NC(=O)[C@H](CCN)NC1=O [BRII-693] (X1-[Dab]T[Dap][Dab][Dab][dL][Abu][Dab][Dab]T; lactam 4-C; N-terminus assumed) | 1.07

###

# protocol-summary: Plasma pharmacokinetics after multiple ascending doses (MAD), phase 1
# Type: in vivo, human (healthy adult participants)
# details: human, plasma, iv, 100 mg, First q6h dose (day 3), 7-day MAD 100 mg q6h × 7, n = 3, arithmetic mean ± SD; read-out: VZ
Where a SMILES comes first, the peptide text is derived from it. Bridges are numbered along the chain shown (N, C = ends). [ ]: non-standard residue; d: D form. The star is where a group is joined. X1 = O=C(c1ccc(Cl)cc1Cl)*; Dab = NCC[C@H](N)C(=O)O; Abu = CC[C@H](N)C(=O)O; Dap = NC[C@H](N)C(=O)O

compound | Vd [L]
CC[C@@H]1NC(=O)[C@@H](CC(C)C)NC(=O)[C@H](CCN)NC(=O)[C@@H](NC(=O)[C@H](CN)NC(=O)[C@@H](NC(=O)[C@H](CCN)NC(=O)c2ccc(Cl)cc2Cl)[C@@H](C)O)CCNC(=O)[C@H]([C@@H](C)O)NC(=O)[C@H](CCN)NC(=O)[C@H](CCN)NC1=O [BRII-693] (X1-[Dab]T[Dap][Dab][Dab][dL][Abu][Dab][Dab]T; lactam 4-C; N-terminus assumed) | 17.1

###

# protocol-summary: Plasma pharmacokinetics after single ascending doses (SAD), phase 1
# Format: in vivo, human (healthy adult participants)
# details: human, plasma, single 1-h IV infusion 50 mg, volume of distribution during terminal phase, n = 6, arithmetic mean ± SD, read-out: VZ
Where a SMILES comes first, the peptide text is derived from it. Bridges are numbered along the chain shown (N, C = ends). [ ]: non-standard residue; d: D form. The star is where a group is joined. X1 = O=C(c1ccc(Cl)cc1Cl)*; Dab = NCC[C@H](N)C(=O)O; Abu = CC[C@H](N)C(=O)O; Dap = NC[C@H](N)C(=O)O
experimental-endpoint: Vd (L)

compound | experimental-endpoint | value-reported
CC[C@@H]1NC(=O)[C@@H](CC(C)C)NC(=O)[C@H](CCN)NC(=O)[C@@H](NC(=O)[C@H](CN)NC(=O)[C@@H](NC(=O)[C@H](CCN)NC(=O)c2ccc(Cl)cc2Cl)[C@@H](C)O)CCNC(=O)[C@H]([C@@H](C)O)NC(=O)[C@H](CCN)NC(=O)[C@H](CCN)NC1=O [BRII-693] (X1-[Dab]T[Dap][Dab][Dab][dL][Abu][Dab][Dab]T; lactam 4-C; N-terminus assumed) | Vd | 19.2

###

# protocol-summary: Plasma pharmacokinetics after single ascending doses (SAD), phase 1
# Format: in vivo, human (healthy adult participants)
# details: human, plasma, single 1-h IV infusion 25 mg, total clearance, n = 5, arithmetic mean ± SD
Where a SMILES comes first, the peptide text is derived from it. Bridges are numbered along the chain shown (N, C = ends). [ ]: non-standard residue; d: D form. The star is where a group is joined. X1 = O=C(c1ccc(Cl)cc1Cl)*; Dab = NCC[C@H](N)C(=O)O; Abu = CC[C@H](N)C(=O)O; Dap = NC[C@H](N)C(=O)O

compound | clearance
CC[C@@H]1NC(=O)[C@@H](CC(C)C)NC(=O)[C@H](CCN)NC(=O)[C@@H](NC(=O)[C@H](CN)NC(=O)[C@@H](NC(=O)[C@H](CCN)NC(=O)c2ccc(Cl)cc2Cl)[C@@H](C)O)CCNC(=O)[C@H]([C@@H](C)O)NC(=O)[C@H](CCN)NC(=O)[C@H](CCN)NC1=O [BRII-693] (X1-[Dab]T[Dap][Dab][Dab][dL][Abu][Dab][Dab]T; lactam 4-C; N-terminus assumed) | 72.7 mL/min
